pIC50: −log10 of the molar value.
This section presents pIC50 values reported for Platelet-derived growth factor receptor beta (Homo sapiens) in the literature.

Guide cases for pIC50, answers given:
# Compound, Test Target, pIC50
measured = [
    ("O=C(Nc1cccc(Oc2ccnc(-c3nnco3)c2)c1)c1cccc(N2CCCCC2)c1", "Platelet-derived growth factor receptor beta (Homo sapiens)", "< 5.00"),
    ("CCn1cc2ncc(N[C@@H](C)c3cc(NC(=O)c4cnc(N5CCCC5)c(C)c4)ccc3F)nc2n1", "Platelet-derived growth factor receptor beta (Homo sapiens)", "> 6.52"),
    ("CCn1cc(C(=O)Nc2cccc([C@H](C)Nc3cnc4cn(CC)nc4n3)c2)cn1", "Platelet-derived growth factor receptor beta (Homo sapiens)", "6.00 to 6.52"),
]

Batch: pIC50 for all items listed.
1. CCn1cc2ncc(N[C@@H](C)c3cccc(NC(=O)c4ccc(C(=O)N5CC[C@@H](N)C5)c(Cl)c4)c3)nc2n1
2. CCCOc1ccc(C(=O)Nc2cccc(Oc3ccnc(-c4cnn(C)c4)c3)c2)cc1
3. Cc1ccc(F)c(NC(=O)Nc2ccc(Oc3ccnc4cc(C(=O)NCCCN5CCOC(CO)C5)sc34)cc2)c1 (stereo not shown)
4. CCn1cc2ncc(N[C@@H](C)c3cccc(NC(=O)c4ccc(CN5CCN(C)CC5)c(Cl)c4)c3)nc2n1
5. Cc1cc(NC(=O)Nc2ccc(Oc3ccnc(-c4cnn(C)c4)n3)cc2)no1
6. Cn1cc(-c2cc(Oc3cccc(NC(=O)c4cccc(-c5cccnc5)c4)c3)ccn2)cn1
7. C[C@H](Nc1cnc2[nH]ccc2n1)c1cccc(NC(=O)c2ccc(C3CC3)nc2)c1
8. CCOc1cc(OCC)cc(C(=O)Nc2cc(Oc3cc(-c4cnn(C)c4)ncn3)ccc2F)c1

Solution:
≤ 6.00
< 5.00
7.82
> 6.52
≥ 5.00
< 5.00
> 6.52
< 5.00

Batch: pIC50 for all items listed.
1. C[C@H](Nc1cnc2cnn(C)c2n1)c1cccc(NC(=O)c2cnn(C(F)F)c2)c1
2. CCn1cc2ncc(N[C@@H](C)c3cccc(NC(=O)Cc4cc(F)cc(Cl)c4)c3)nc2n1
3. C[C@H](Nc1cnc2cnn(C)c2n1)c1cccc(NC(=O)c2cc(C3CC3)on2)c1
4. CCn1cc2ncc(N[C@@H](C)c3cc(NC(=O)c4ccc(OC5CCN(C)CC5)c(C(F)(F)F)c4)ccc3F)nc2n1

Solution:
1. > 6.52
2. > 6.52
3. > 6.52
4. > 6.52

Problem: Please report pIC50 for the following compound: O=C(Nc1cccc(Oc2cc(-c3ncno3)ncn2)c1)Nc1ccc(Cl)c(C(F)(F)F)c1
Solution: ≥ 5.00

* * *

pIC50: −log10 of the molar value.
This section presents pIC50 values reported for Platelet-derived growth factor receptor beta (Homo sapiens, UniProt P09619) in the literature.

Guide cases for pIC50, answers given:
# Compound, pIC50
records = [
    ("O=C(CCCCCCCNC(=O)c1cc(Oc2ccc(NC(=O)Nc3ccc(Cl)c(C(F)(F)F)c3)cc2)ccn1)NO", "6.00 to 7.00"),
    ("O=C(Nc1cccc(Oc2cc(-c3nnco3)ncn2)c1)Nc1ccc(Cl)c(C(F)(F)F)c1", "≥ 5.00"),
    ("Cn1ccc(-c2cc(Oc3cccc(NC(=O)Nc4ccc(Cl)c(C(F)(F)F)c4)c3)ncn2)n1", "< 5.00"),
    ("COC(=O)CNCCCNC(=O)c1cc2nccc(Oc3ccc(NC(=O)Nc4cc(C)ccc4F)c(F)c3)c2s1", 7.96),
    ("Cc1ccc(C(=O)N[C@H]2CCCC[C@@H]2O)cc1OC(C)c1cncc(-c2ccccc2)c1 (stereo partly shown)", 6.72),
]

Batch: pIC50 for all items listed.
1. CCn1cc2ncc(N[C@@H](C)c3cccc(NC(=O)Nc4cnc(C5CC5)c(C)c4)c3)nc2n1
2. Cc1ccc(C(=O)N[C@H]2CCCC[C@@H]2O)cc1NC(=O)c1cnc2sccn12
3. CCn1cc2ncc(N[C@@H](C)c3cc(NC(=O)c4cnc(C)c(C)c4)ccc3C)nc2n1

Solution:
> 6.52
7.82
> 6.52

Batch: pIC50 for all items listed.
1. Cc1ccc(C(=O)N[C@H]2CCCC[C@@H]2O)cc1NCc1cnc2[nH]ncc2c1
2. Cc1ccc(C(=O)N[C@H]2CCCC[C@@H]2O)cc1NCc1cncc(-c2cn3ccnc3cn2)c1
3. CCNc1ncc(C(=O)Nc2ccc(C)c([C@H](C)Nc3cnc4cn(CC)nc4n3)c2)cc1C
4. CC1OC(=O)c2ccc(C(=O)Nc3cccc([C@H](C)Nc4cnc5cnn(C)c5n4)c3)cc21 (stereo partly shown)

Solution:
1: 7.34; 2: 6.82; 3: > 6.52; 4: > 6.52

Batch: pIC50 for all items listed.
1. CCCOC(=O)c1ccc(C(=O)Nc2cccc([C@H](C)Nc3cnc4cnn(C)c4n3)c2)cc1C
2. Cn1cc(-c2nccc(Oc3cccc(NC(=O)Nc4ccc(OC(F)(F)F)cc4)c3)n2)cn1

Solution:
["> 6.52", "≥ 5.00"]

Batch: pIC50 for all items listed.
1. CCn1cc2ncc(N[C@@H](C)c3cc(NC(=O)c4cnc(OCC5CC5)c(C)c4)ccc3F)nc2n1
2. Cc1ncc(C(=O)N[C@H]2CCCC[C@@H]2O)cc1/C=C(\F)c1cncc(OCC2CC2)c1

Solution:
["> 6.52", 7.85]
